target: Multidrug efflux pump subunit AcrB (Escherichia coli (strain K12)); assay: Inhibition of AcrB in multidrug-resistant Escherichia coli BW25113 assessed as potentiation of tetraphenylphosphonium-induced antibacterial activity by measuring tetraphenylphosphonium MIC at 128 ug/ml by checkerboard titration method (reference value: 1024 ug/ml); details: dose 128.0 µg/ml
observation-type: MIC (µg/mL)

- compound: "COc1cccc(COc2cccc3c4c(c(C(=O)N5CCOCC5)cc23)CCC(C)(C)O4)c1"
  endpoint-result: 128
- compound: "CC1CN(C(=O)c2cc3c(OCc4c(Cl)cccc4Cl)cccc3c3c2CCC(C)(C)O3)CC(C)O1 (configuration not stated)"
  endpoint-result: 1020
- compound: "CC1(C)CCc2c(C(=O)N3CCOCC3)cc3c(OCc4ccccc4)cccc3c2O1"
  endpoint-result: 64
- compound: "CC1(C)CCc2c(-c3nnco3)cc3c(OCc4ccccc4)cccc3c2O1"
  endpoint-result: 128
- compound: "CC1(C)CCc2c(Cn3cnnn3)cc3c(OCc4ccc(OC(F)(F)F)cc4)cccc3c2O1"
  endpoint-result: 1020
- compound: "CC(C)NCCOc1ccc2c(c1)OC(C)(C)CC2=O"
  endpoint-result: 1020
- compound: "C=CC(=O)Nc1ccc(COc2cccc3c4c(c(Cn5cnnn5)cc23)CCC(C)(C)O4)cc1"
  endpoint-result: 1020
- compound: "COc1cccc(COc2cccc3c4c(c(C(=O)O)cc23)CCC(C)(C)O4)c1"
  endpoint-result: 256
- compound: "CC1(C)CCc2c(C(=O)N3CCOCC3)cc3c(OCc4ccc(C(F)(F)F)cc4)cccc3c2O1"
  endpoint-result: 256
- compound: "CC1(C)CCc2c(Cn3cnnn3)cc3c(OCc4ccc([N+](=O)[O-])cc4)cccc3c2O1"
  endpoint-result: 512
- compound: "CNC(=O)c1ccc(COc2cccc3c4c(c(Cn5cnnn5)cc23)CCC(C)(C)O4)cc1"
  endpoint-result: 1020
- compound: "C=CC(=O)Nc1ccc(COc2cccc3c4c(c(C(=O)N5CCOCC5)cc23)CCC(C)(C)O4)cc1"
  endpoint-result: 64

---

target: Multidrug efflux pump subunit AcrB (Escherichia coli (strain K12)) (UniProt P31224); test: Inhibition of AcrB in multidrug-resistant Escherichia coli BW25113 assessed as potentiation of chloramphenicol-induced antibacterial activity by measuring chloramphenicol MIC at 32 ug/ml by checkerboard titration method (reference value: 8 ug/ml); details: dose 32.0 µg/ml

- compound: "COc1cccc(COc2cccc3c4c(c(C(=O)N5CCOCC5)cc23)CCC(C)(C)O4)c1"
  tested-target: "Multidrug efflux pump subunit AcrB (Escherichia coli (strain K12)) (UniProt P31224)"
  MIC [µg/mL]: 4
- compound: "CC1(C)CCc2c(-c3nnco3)cc3c(OCc4ccc(C#N)cc4)cccc3c2O1"
  tested-target: "Multidrug efflux pump subunit AcrB (Escherichia coli (strain K12)) (UniProt P31224)"
  MIC [µg/mL]: 4
- compound: "CC(C)NCCOc1ccc2c(c1)OC(C)(C)CC2=O"
  tested-target: "Multidrug efflux pump subunit AcrB (Escherichia coli (strain K12)) (UniProt P31224)"
  MIC [µg/mL]: 8
- compound: "CC1(C)CCc2c(Cn3cnnn3)cc3c(OCc4ccc(OC(F)(F)F)cc4)cccc3c2O1"
  tested-target: "Multidrug efflux pump subunit AcrB (Escherichia coli (strain K12)) (UniProt P31224)"
  MIC [µg/mL]: 8
- compound: "C=CC(=O)Nc1ccc(COc2cccc3c4c(c(C(=O)N5CCOCC5)cc23)CCC(C)(C)O4)cc1"
  tested-target: "Multidrug efflux pump subunit AcrB (Escherichia coli (strain K12)) (UniProt P31224)"
  MIC [µg/mL]: 4
- compound: "CC1(C)CCc2c(C(=O)N3CCOCC3)cc3c(OCc4ccc(C(F)(F)F)cc4)cccc3c2O1"
  tested-target: "Multidrug efflux pump subunit AcrB (Escherichia coli (strain K12)) (UniProt P31224)"
  MIC [µg/mL]: 8
- compound: "CC1CN(C(=O)c2cc3c(OCc4ccc(Br)cc4)cccc3c3c2CCC(C)(C)O3)CC(C)O1 (stereo not given)"
  tested-target: "Multidrug efflux pump subunit AcrB (Escherichia coli (strain K12)) (UniProt P31224)"
  MIC [µg/mL]: 8
- compound: "CC1(C)CCc2c(C(=O)N3CCOCC3)cc3c(OCc4ccccc4)cccc3c2O1"
  tested-target: "Multidrug efflux pump subunit AcrB (Escherichia coli (strain K12)) (UniProt P31224)"
  MIC [µg/mL]: 4
- compound: "CC1(C)CCc2c(-c3nnco3)cc3c(OCc4ccc(F)cc4)cccc3c2O1"
  tested-target: "Multidrug efflux pump subunit AcrB (Escherichia coli (strain K12)) (UniProt P31224)"
  MIC [µg/mL]: 8
- compound: "CC1(C)CC(=O)c2ccc(OCCNC3CCCC3)cc2O1"
  tested-target: "Multidrug efflux pump subunit AcrB (Escherichia coli (strain K12)) (UniProt P31224)"
  MIC [µg/mL]: 8
- compound: "CNC(=O)c1ccc(COc2cccc3c4c(c(Cn5cnnn5)cc23)CCC(C)(C)O4)cc1"
  tested-target: "Multidrug efflux pump subunit AcrB (Escherichia coli (strain K12)) (UniProt P31224)"
  MIC [µg/mL]: 8
- compound: "C=CC(=O)Nc1ccc(COc2cccc3c4c(c(Cn5cnnn5)cc23)CCC(C)(C)O4)cc1"
  tested-target: "Multidrug efflux pump subunit AcrB (Escherichia coli (strain K12)) (UniProt P31224)"
  MIC [µg/mL]: 4
- compound: "CC1(C)CCc2c(Cn3cnnn3)cc3c(OCc4ccccc4)cccc3c2O1"
  tested-target: "Multidrug efflux pump subunit AcrB (Escherichia coli (strain K12)) (UniProt P31224)"
  MIC [µg/mL]: 8
- compound: "Cc1ccc(COc2cccc3c4c(c(-c5nnco5)cc23)CCC(C)(C)O4)cc1"
  tested-target: "Multidrug efflux pump subunit AcrB (Escherichia coli (strain K12)) (UniProt P31224)"
  MIC [µg/mL]: 8
- compound: "COc1cccc(COc2cccc3c4c(c(C(=O)O)cc23)CCC(C)(C)O4)c1"
  tested-target: "Multidrug efflux pump subunit AcrB (Escherichia coli (strain K12)) (UniProt P31224)"
  MIC [µg/mL]: 8

---

The entries below are paired with their reported MIC.
biological target: Multidrug efflux pump subunit AcrB (Escherichia coli (strain K12)) (UniProt P31224); experiment: Inhibition of AcrB in multidrug-resistant Escherichia coli BW25113 assessed as potentiation of tetraphenylphosphonium-induced antibacterial activity by measuring tetraphenylphosphonium MIC at 32 ug/ml by checkerboard titration method (reference value: 1024 ug/ml); conditions: dose 32.0 µg/ml

- compound-smiles: "CC1(C)CCc2c(Cn3cnnn3)cc3c(OCc4ccc([N+](=O)[O-])cc4)cccc3c2O1"
  readout-units: "µg/mL"
  MIC: 1020
- compound-smiles: "COc1cccc(COc2cccc3c4c(c(-c5nnco5)cc23)CCC(C)(C)O4)c1"
  readout-units: "µg/mL"
  MIC: 1020
- compound-smiles: "CC1(C)CCc2c(C(=O)N3CCOCC3)cc3c(OCc4ccccc4)cccc3c2O1"
  readout-units: "µg/mL"
  MIC: 512
- compound-smiles: "CC1(C)CCc2c(-c3nnco3)cc3c(OCc4ccccc4)cccc3c2O1"
  readout-units: "µg/mL"
  MIC: 512
- compound-smiles: "C[C@@H](Cc1ccc(O)c(O)c1)[C@@H](C)Cc1ccc(O)c(O)c1"
  readout-units: "µg/mL"
  MIC: 1020
- compound-smiles: "CC1(C)CCc2c(-c3nnco3)cc3c(OCc4ccc([N+](=O)[O-])cc4)cccc3c2O1"
  readout-units: "µg/mL"
  MIC: 1020
- compound-smiles: "C=CC(=O)Nc1ccc(COc2cccc3c4c(c(Cn5cnnn5)cc23)CCC(C)(C)O4)cc1"
  readout-units: "µg/mL"
  MIC: 1020
- compound-smiles: "CC1(C)CCc2c(C(=O)O)cc3c(OCc4ccccc4)cccc3c2O1"
  readout-units: "µg/mL"
  MIC: 512
- compound-smiles: "CC(C)NCCOc1ccc2c(c1)OC(C)(C)CC2=O"
  readout-units: "µg/mL"
  MIC: 1020
- compound-smiles: "CC1(C)CC(=O)c2ccc(OCCNC3CCCC3)cc2O1"
  readout-units: "µg/mL"
  MIC: 512

---

Target: Multidrug efflux pump subunit AcrB (Escherichia coli (strain K12)) (UniProt P31224)
Sequence (whole entry): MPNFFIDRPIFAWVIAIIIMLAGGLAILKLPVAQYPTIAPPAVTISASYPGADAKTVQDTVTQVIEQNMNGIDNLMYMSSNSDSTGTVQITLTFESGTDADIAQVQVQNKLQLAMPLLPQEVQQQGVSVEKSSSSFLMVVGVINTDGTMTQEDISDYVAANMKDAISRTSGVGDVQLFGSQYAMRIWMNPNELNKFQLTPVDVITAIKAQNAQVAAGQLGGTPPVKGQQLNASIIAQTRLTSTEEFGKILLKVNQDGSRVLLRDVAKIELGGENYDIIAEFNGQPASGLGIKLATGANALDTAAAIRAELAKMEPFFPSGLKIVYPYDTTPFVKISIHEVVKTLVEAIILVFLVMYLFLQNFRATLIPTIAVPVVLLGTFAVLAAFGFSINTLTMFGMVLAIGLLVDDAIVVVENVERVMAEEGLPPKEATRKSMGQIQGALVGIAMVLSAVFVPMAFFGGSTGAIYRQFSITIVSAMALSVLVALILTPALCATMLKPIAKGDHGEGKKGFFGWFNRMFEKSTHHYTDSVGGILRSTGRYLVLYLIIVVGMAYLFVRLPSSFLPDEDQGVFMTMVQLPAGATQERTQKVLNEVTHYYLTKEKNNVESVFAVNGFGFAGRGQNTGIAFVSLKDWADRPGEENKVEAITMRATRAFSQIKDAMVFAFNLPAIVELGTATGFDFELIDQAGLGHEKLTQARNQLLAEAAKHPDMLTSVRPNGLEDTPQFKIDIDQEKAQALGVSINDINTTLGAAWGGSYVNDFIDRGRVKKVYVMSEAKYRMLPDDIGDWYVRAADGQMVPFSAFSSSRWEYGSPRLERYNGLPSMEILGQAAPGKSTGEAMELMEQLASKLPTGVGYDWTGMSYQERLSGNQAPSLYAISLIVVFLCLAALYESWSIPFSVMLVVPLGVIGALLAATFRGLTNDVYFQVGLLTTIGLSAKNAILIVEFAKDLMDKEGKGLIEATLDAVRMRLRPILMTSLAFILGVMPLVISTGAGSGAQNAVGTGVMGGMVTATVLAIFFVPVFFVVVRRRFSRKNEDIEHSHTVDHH
Assay: Inhibition of AcrB in multidrug-resistant Escherichia coli BW25113 assessed as potentiation of chloramphenicol-induced antibacterial activity by measuring chloramphenicol MIC at 128 ug/ml by checkerboard titration method (reference value: 8 ug/ml)
Settings: dose 128.0 µg/ml
Recorded MIC by entry

- molecule: "C=CC(=O)Nc1ccc(COc2cccc3c4c(c(Cn5cnnn5)cc23)CCC(C)(C)O4)cc1"
  MIC [µg/mL]: 4
- molecule: "CC1(C)CCc2c(-c3nnco3)cc3c(OCc4ccccc4)cccc3c2O1"
  MIC [µg/mL]: 2
- molecule: "CC1(C)CC(=O)c2ccc(OCCNC3CCCC3)cc2O1"
  MIC [µg/mL]: 8
- molecule: "CC1CN(C(=O)c2cc3c(OCc4ccc(Br)cc4)cccc3c3c2CCC(C)(C)O3)CC(C)O1 (centres undefined)"
  MIC [µg/mL]: 8
